system: TNBS-induced ulcerative colitis model mice; test: TNBS-induced mice ulcerative colitis model; format: in vivo, BALB/c male mice; conditions: 24 hours after last administration; ig 7 days; compound 20 mg/kg, sulfasalazine 500 mg/kg
Recorded Length of the colon, one value per entry.

Worked set:
[
  {
    "compoundStructureString": "Cc1sc(N/N=C/c2ccccc2C(=O)O)nc1-c1ccccc1",
    "Length of the colon": "5.124 ± 0.332 cm"
  },
  {
    "compoundStructureString": "CN(/N=C/c1cc(F)c(F)cc1C(=O)O)c1nc(-c2ccccc2Cl)cs1",
    "Length of the colon": "4.997 ± 0.476 cm"
  },
  {
    "compoundStructureString": "CCCN(/N=C/c1ccccc1C(=O)O)c1nc(-c2ccccc2Cl)cs1",
    "Length of the colon": "5.699 ± 0.368 cm"
  },
  {
    "compoundStructureString": "CN(/N=C/c1ccc(F)cc1C(=O)O)c1nc(-c2ccccc2Cl)cs1",
    "Length of the colon": "6.321 ± 0.436 cm"
  },
  {
    "compoundStructureString": "CN(/N=C/c1ccc(C(F)(F)F)cc1C(=O)O)c1nc(-c2ccccc2Cl)cs1",
    "Length of the colon": "6.005 ± 0.452 cm"
  }
]

Query block: For the compound shown here, `CN(/N=C/c1ccccc1C(=O)O)c1nc(-c2cccc(Cl)c2)cs1` , give the reported Length of the colon.
Result block: 4.986 ± 0.452 cm

Query block: Input `O=C(O)c1c(F)cccc1/C=N/Nc1nc(-c2ccccc2Cl)cs1`
Result block: 5.575 ± 0.392 cm

Query block: What do you have for `Cc1ccc(/C=N/Nc2nc(-c3ccccc3Cl)cs2)c(C(=O)O)c1` ?
Result block: 5.985 ± 0.363 cm

Query block: Please do the same for `CN(/N=C/c1ccccc1C(=O)O)c1nc(-c2ccccc2Cl)cs1` as well.
Result block: 5.575 ± 0.452 cm
